Experiment: Dissociation constant was determined
Type: physicochemical
measurement kind: pKi
Numbers only, as −log10 of the molar value.

// sample O=C1N[C@@H](CS)C[C@@H](C(=O)O)N1 (relative stereo) , its pKi was 6.70
